# System: HCC1569;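 note: TDF is a line of transformed human dermal fibroblasts of mesenchymal origin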
# METHOD_NOTES: H1.0 immunofluorescence intensity relative to DMSO (% of DMSO); higher = stronger H1.0 induction, active = 140 or more
# RUN_CONDITIONS: concentration: 10 µM; 24 h
// label = TRUE if H1.0 immunofluorescence intensity is not less than 100, otherwise FALSE

Take a look at these entries with their results.
[[record]]
compound = "Cc1ccc(-c2cc(C(F)(F)F)nn2-c2ccc(S(N)(=O)=O)cc2)cc1 [Celecoxib]"
category_label = "TRUE"

[[record]]
compound = "CC(=O)OCC1OC([S-])C(OC(C)=O)C(OC(C)=O)C1OC(C)=O.CCP(CC)CC.[Au+] (stereo unspecified) [Auranofin]"
category_label = "TRUE"

[[record]]
compound = "OCC1NC(CO)C(O)C1O [(2R,5R)-Bis(hydroxymethyl)-(3R,4R)-dihydroxypyrrolidine]"
category_label = "FALSE"


## Task Hi, just wondering whether NNCCc1ccccc1.O=S(=O)(O)O [Phenelzine sulfate] shows H1.0 immunofluorescence intensity of 100 or higher.
## Result FALSE

## Task And for COc1ccc(C(=O)Nc2sc3c(c2C(N)=O)CCCC3)cc1OC [Flt-3 Inhibitor] ?
## Result TRUE

## Task And for Cc1cc(N)c2ccccc2[n+]1CCCCCCCCCC[n+]1c(C)cc(N)c2ccccc21.[Cl-].[Cl-] [Dequalinium dichloride] ?
## Result TRUE

## Task And for CC(=O)Oc1cc(C(C)C)c(OCCN(C)C)cc1C.Cl [Moxisylyte hydrochloride] ?
## Result FALSE

## Task And for COc1c(N2CCNC(C)C2)c(F)cc2c(=O)c(C(=O)O)cn(C3CC3)c12 (stereo unspecified) [Gatifloxacin] ?
## Result TRUE

## Task And for COC(=O)Nc1nc2ccc(C(=O)c3cccs3)cc2[nH]1 [Nocodazole] ?
## Result TRUE

## Task And for CNCCCC12CCC(c3ccccc31)c1ccccc12.Cl [Maprotiline.HCl] ?
## Result TRUE

## Task And for C=C1C(=O)C23C(O)C1CCC2C12COC3(O)C(O)C1C(C)(C)CCC2O (stereo unspecified) [Oridonin] ?
## Result TRUE

## Task And for CCN(CC)CCNC(=O)c1c(C)[nH]c(C=C2C(=O)Nc3ccc(F)cc32)c1C [Sunitinib] ?
## Result TRUE

## Task And for CCOc1cc2ncc(C#N)c(Nc3ccc(F)c(Cl)c3)c2cc1NC(=O)/C=C/CN(C)C ?
## Result FALSE

## Task And for O=C1CCc2c(ccc3ccccc23)O1 [1,2-dihydro-3H-benzo[f]chromen-3-one] ?
## Result FALSE

## Task And for O=C(Nc1cccc(Nc2nccc(Nc3cccc(C(F)(F)F)c3)n2)c1)C1CC1 [Aurora Kinase Inhibitor III] ?
## Result TRUE

## Task And for CCCCC1CCC(c2nc(-c3ccncc3)no2)CC1 (stereo unspecified) [4-[5-(4-butylcyclohexyl)-1,2,4-oxadiazol-3-yl]pyridine] ?
## Result TRUE

## Task And for CC1C(=O)N=C2Nc3cccc(Cl)c3CN21 (stereo unspecified) [Quazinone] ?
## Result FALSE

## Task And for CCCCCCCCCCC1=C(C)C(=O)C(OC)=C(OC)C1=O [Decylubiquinone] ?
## Result FALSE

## Task And for Cl.Clc1ccc2nsnc2c1NC1=NCCN1 [Tizanidine.HCl] ?
## Result FALSE

## Task And for Br.CN=c1nc(-c2ccccc2)n(-c2ccccc2)s1 ?
## Result TRUE

## Task And for COc1ccccc1N1CCN(CCCNc2c(C)c(=O)n(C)c(=O)n2C)CC1 [Urapidil, 5-Methyl-] ?
## Result TRUE

## Task And for CC(=O)Nc1nnc(S(N)(=O)=O)s1 [Acetazolamide] ?
## Result FALSE
